# system_name: α1β3γ2 GABAA/BzR (Homo sapiens, UniProt P14867+P18507)
# assay_overview: Competition binding to HEK cell membranes, α1β3γ2
# Parameters: expressed in transfected cells
# study_conditions: Figure 17; read-out: Binding data Ki α1
parameter: Ki

Prompt line: Bench note: what Ki did `CCOC(=O)c1ncn2c1CN=C(c1ccccc1)c1cc(-c3ccccc3)ccc1-2` show?
Response line: > 2000 nM

###

# system_name: α2β3γ2 GABAA/BzR (Homo sapiens, UniProt P18507+P47869)
# assay_overview: Competition binding to HEK cell membranes, α2β3γ2
# Set-up: expressed in transfected cells
# study_conditions: read-out: Ki α2
pKi: −log10 of the molar value.
Label Fulfilled when pKi is at or above 8; anything below gets Not fulfilled.

Answered cases to consult:
Prompt line: For this compound, is measured pKi 8 or higher? COc1ccc2c(c1)C(=O)N1CCC1c1c(C(=O)OC(C)(C)C)ncn1-2 (centres unmarked) [CM-D45 C19H21N3O4]
Response line: Not fulfilled

Prompt line: For this compound, is measured pKi 8 or higher? CN(C)C=C1N=C2CN=C(c3ccccc3)c3cc(Br)ccc3N2C1=O [PS-1-34B]
Response line: Fulfilled

Prompt line: For this compound, is measured pKi 8 or higher? C#Cc1ccc2c(c1)C(c1ccccc1Cl)=NCC(=O)N2C [XLi352]
Response line: Fulfilled

Now, please, on to the next compound.
Prompt line: For this compound, is measured pKi 8 or higher? C#Cc1ccc2c(c1)C(=O)N1CCCC1c1c(C(=O)OC(C)(C)C)ncn1-2 (centres unmarked) [JYI-03]
Response line: Not fulfilled

Where these numbers come from: paper PMC4657098
